Exercise: state measured IC50 for each of the molecules provided.
# test.target: DNMT1 (Homo sapiens)
# Sequence (P26358 whole entry, looked up): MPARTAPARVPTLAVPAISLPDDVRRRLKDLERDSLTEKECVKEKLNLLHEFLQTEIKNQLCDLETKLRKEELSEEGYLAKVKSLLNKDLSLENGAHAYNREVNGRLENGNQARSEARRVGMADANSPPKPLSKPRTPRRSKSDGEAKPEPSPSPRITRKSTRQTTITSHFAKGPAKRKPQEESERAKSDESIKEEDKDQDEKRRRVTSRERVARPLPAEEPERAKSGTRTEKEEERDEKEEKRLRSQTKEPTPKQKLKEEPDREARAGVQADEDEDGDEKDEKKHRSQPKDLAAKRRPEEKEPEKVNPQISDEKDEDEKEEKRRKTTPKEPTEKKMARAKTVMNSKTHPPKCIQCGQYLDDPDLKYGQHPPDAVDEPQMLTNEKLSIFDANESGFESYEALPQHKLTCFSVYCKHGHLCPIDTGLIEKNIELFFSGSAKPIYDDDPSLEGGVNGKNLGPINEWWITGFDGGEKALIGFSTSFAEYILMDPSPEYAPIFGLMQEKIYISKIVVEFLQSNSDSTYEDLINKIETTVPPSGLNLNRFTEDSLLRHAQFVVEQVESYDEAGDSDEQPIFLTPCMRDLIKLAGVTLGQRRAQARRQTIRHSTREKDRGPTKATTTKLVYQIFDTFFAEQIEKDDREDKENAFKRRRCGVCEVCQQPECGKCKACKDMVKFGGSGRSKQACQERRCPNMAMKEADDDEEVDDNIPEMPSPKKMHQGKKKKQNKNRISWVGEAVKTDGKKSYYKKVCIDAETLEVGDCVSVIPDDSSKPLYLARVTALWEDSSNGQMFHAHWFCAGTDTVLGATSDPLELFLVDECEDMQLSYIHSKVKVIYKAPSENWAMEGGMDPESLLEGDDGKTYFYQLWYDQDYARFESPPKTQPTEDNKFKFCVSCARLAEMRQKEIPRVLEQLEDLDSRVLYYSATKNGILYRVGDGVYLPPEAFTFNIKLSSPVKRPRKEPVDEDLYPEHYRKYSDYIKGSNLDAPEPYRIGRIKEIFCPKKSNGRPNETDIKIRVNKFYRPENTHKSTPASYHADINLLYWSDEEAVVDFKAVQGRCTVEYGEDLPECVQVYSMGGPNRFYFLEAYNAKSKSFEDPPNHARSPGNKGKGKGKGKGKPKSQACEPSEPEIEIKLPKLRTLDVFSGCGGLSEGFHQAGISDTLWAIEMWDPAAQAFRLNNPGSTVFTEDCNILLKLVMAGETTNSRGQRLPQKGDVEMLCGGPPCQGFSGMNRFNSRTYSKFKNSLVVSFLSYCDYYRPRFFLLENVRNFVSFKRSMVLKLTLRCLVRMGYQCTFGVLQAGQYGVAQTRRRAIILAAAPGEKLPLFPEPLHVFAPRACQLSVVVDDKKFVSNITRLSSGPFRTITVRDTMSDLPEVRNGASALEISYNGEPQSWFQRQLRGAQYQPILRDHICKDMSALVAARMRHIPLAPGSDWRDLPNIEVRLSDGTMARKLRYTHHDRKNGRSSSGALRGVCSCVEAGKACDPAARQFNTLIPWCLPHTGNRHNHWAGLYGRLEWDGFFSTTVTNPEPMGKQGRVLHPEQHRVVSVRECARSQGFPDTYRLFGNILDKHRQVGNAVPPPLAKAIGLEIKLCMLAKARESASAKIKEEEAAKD
# experiment.description: DNMT1 biochemical activity, breaklight assay and/or SPA assay
# setup.conditions: binned activity in either the breaklight or the SPA assay; read-out: DNMT1 BioChemical (pIC50 category) (converted)
Structures can show the parent of a compound that is named as a salt.

Guide cases for IC50, answers given:
molecule	IC50
CCc1c(C#N)c(SCc2ccccc2)nc(N2CCC(NC(=O)CN)CC2)c1C#N [Example 94, Trifluoroacetic Acid Salt]	316 to 1000 nM
CCc1c(C#N)c(SC(C(N)=O)c2ccc(F)cc2)nc(N2CCC(NC)CC2)c1C#N (stereo not drawn)	< 316 nM
N#Cc1c(SC(C(N)=O)c2ccccc2)nc(N2CC(NC(=O)C3(N)COC3)C2)c(C#N)c1C1CC1 (stereo not drawn)	< 316 nM
CCNC(=O)NCc1ccc(CSc2nc(N3CCCN(C)CC3)c(C#N)c(CC)c2C#N)cc1	316 to 1000 nM
CCc1c(C#N)c(SC(C(N)=O)c2ccccc2)nc(N2CCN(Cc3cnsc3)CC2)c1C#N (stereo not drawn)	316 to 1000 nM
CCc1c(C#N)c(SC(C(N)=O)c2ccccc2)nc(N2CCC(O)CC2)c1C#N (stereo not drawn)	316 to 1000 nM
CCc1c(C#N)c(SC(C(N)=O)c2ccccc2)nc(N2CCNCC(F)C2)c1C#N (stereo not drawn)	316 to 1000 nM
N#Cc1c(SC(C(N)=O)c2ccccc2)nc(N2CCOC(CO)C2)c(C#N)c1C1CC1 (stereo not drawn)	316 to 1000 nM

Record IC50 per entry; entries follow.
1. CCc1c(C#N)c(SCc2ccc3c(c2)CCN(C(C)=O)C3)nc(N(C)C)c1C#N
2. CCc1c(C#N)c(SCc2ccc(S(C)(=O)=O)cc2)nc(N2CCCN(C)CC2)c1C#N
3. CCc1c(C#N)c(SCc2ccc3[nH]ccc3c2)nc(N2CCC(N3CCCC3)CC2)c1C#N

1: 316 to 1000 nM; 2: 316 to 1000 nM; 3: 316 to 1000 nM
